Recorded pIC50 for compounds tested on UniProt P55157, drawn from a number of studies.
pIC50: −log10 of the molar value.
outcome_measure: pIC50

Below are worked cases with known answers.
{"compound": "CCNC(=O)C(c1ccccc1)N1CCN(c2ccc(NC(=O)c3cccc(C)c3-c3ccc(C(F)(F)F)cc3)cc2)CC1 (stereo not shown)", "pIC50": 8.33}
{"compound": "CCOC(=O)[C@]1(c2ccccc2)CC[C@@H](C(=O)N2CCN(C(=O)c3ccccc3OC)CC2)c2ccccc21", "pIC50": 7.19}
{"compound": "COC(=O)C(c1ccccc1)N1CCC(c2ccc(NC(=O)c3ccccc3-c3ccc(C(F)(F)F)cc3)cc2)CC1 (stereo not shown)", "pIC50": 8.06}
{"compound": "CCOC(=O)[C@]1(c2ccccc2)CC[C@H](C(=O)N(C)CCCNC(=O)c2ccccc2)c2ccccc21", "pIC50": 7.79}
{"compound": "CCNC(=O)[C@]1(c2ccccc2)CC[C@@H](CN2CCC(NC(=O)c3ccccc3OC)CC2)c2ccccc21", "pIC50": 7.30}

I = COC(=O)CCNC(=O)[C@@]1(c2ccccc2)CC[C@H](C(=O)N2CCC(NC(=O)c3cccnc3OC)CC2)c2ccccc21
II = CCNC(=O)[C@]1(c2ccccc2)CC[C@@H](C(=O)N2CCC(NC(=O)c3ccccc3C)CC2)c2ccccc21
Request: Returns: the label, I or II , whose recorded pIC50 is the lower number. I would appreciate it if you answered with the label of your choice.
Response: II

P = COC(=O)[C@]1(c2ccccc2)CC[C@@H](C(=O)N2CCC(NC(=O)c3cc(C)ccc3OC)CC2)c2ccccc21
Q = CCNC(=O)[C@]1(c2ccccc2)CC[C@H](C(=O)N2CCC(NC(=O)c3ccccc3OC)CC2)c2ccccc21
Request: Of the two listed items, which has the higher pIC50? First: P Second: Q I would appreciate it if you answered with the label of your choice.
Response: P
